Where do these numbers come from? They come from BindingDB's records for doi:10.1021/jm970333f.

assay_explanation: Inhibition of [3H]pentazocine binding to sigma-1 sites in guinea pig brain membranes
Threshold 20 nM: Ki strictly smaller gives Condition met, otherwise Condition not met.

Before answering, review these 8 worked examples.
CCN(CCN1CC[C@@]2(C)c3cc(O)ccc3C[C@H]1[C@H]2C)c1ccccc1: Condition not met
C[C@@H]1[C@@H]2Cc3ccc(O)cc3[C@]1(C)CCN2CCN1CCCCC1: Condition met
C[C@@H]1[C@@H]2Cc3ccc(O)cc3[C@]1(C)CCN2CCN1CCOCC1: Condition met
C[C@@H]1[C@@H]2Cc3ccc(O)cc3[C@]1(C)CCN2CCNC1CCCCC1: Condition not met
C=CCN1CCC2c3cc(O)ccc3CC1C2C (configuration not stated): Condition not met
C[C@@H]1[C@@H]2Cc3ccc(O)cc3[C@]1(C)CCN2CCNc1ccccc1: Condition met
C[C@@H]1[C@@H]2Cc3ccc(O)cc3[C@]1(C)CCN2CCN1CCCC1: Condition met
C[C@@H]1[C@@H]2Cc3ccc(O)cc3[C@]1(C)CCN2CCN(C)c1ccccc1: Condition met

Hello, is Ki of the following compound strictly smaller than 20 nM? CCN(CC)CCN1CC[C@@]2(C)c3cc(O)ccc3C[C@H]1[C@H]2C
Condition met

Hello, is Ki of the following compound strictly smaller than 20 nM? C[C@@H]1[C@@H]2Cc3ccc(O)cc3[C@]1(C)CCN2CCNCc1ccccc1
Condition not met
